B1: PRPH (parent)
chain: RTFGPPPSLSPGAFSYSSSSRFSS

- Variants of: B1
- Assay Text: protein stability index of a GFP-peptide fusion (GPS, HEK-293T) (PSI 1-6); higher = more stable;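 further: lentivirally expressed fusions sorted by FACS into six bins by GFP to DsRed ratio, PSI derived from sequencing read proportions per bin multiplied by bin number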
- Condition Label: c terminus: a fixed tail appended
Param threshold (3) applies to protein stability index; output Criterion met when value >= threshold, Criterion not met when value < threshold.

Illustrative cases are given below, each with its answer.
P7C = Criterion not met
G12L = Criterion not met
P7A = Criterion met
F22M = Criterion met
F22D = Criterion met

Can S24L be said to have protein stability index at or above 3?
Criterion not met

Thanks! And S20F ?
Criterion not met
